tested on: MDR1; assay: Efflux ratio of permeability across basolateral to apical side over apical to basolateral side in MDCK2-MDR1 cells; format: ADME, cell-based, Canis lupus familiaris; conditions: dog, MDCK-MDR1
readout-label: efflux ratio

What does the record list as efflux ratio for CN1CCCc2c1nc(N1CCC3(CC1)C(=O)N(C)c1cc(N4CCNCC4)cc(F)c13)[nH]c2=O ?
9.1

Quick one: COCCN1C(=O)C2(CCN(c3nc4c(c(=O)[nH]3)CCCN4C)CC2)c2c(F)cc(F)cc21
4.8

Quick one: CN1CCCc2c1nc(N1CCC3(CC1)C(=O)N(CC(=O)O)c1cc(F)cc(F)c13)[nH]c2=O
0.5

Quick one: CN1CCCc2c1nc(N1CCC3(CC1)C(=O)N(C)c1cc(OCCN4CCOCC4)cc(F)c13)[nH]c2=O
29.1

Quick one: CN1CCCc2c1nc(N1CCC3(CC1)C(=O)N(C)c1cc(N4CCOCC4)cc(F)c13)[nH]c2=O
7.8

[P] CN1CCCc2c1nc(N1CCC3(CC1)C(=O)N(CC#N)c1cc(F)cc(F)c13)[nH]c2=O
[Q] CN1CCN(CCOc2cc(F)c3c(c2)N(C)C(=O)C32CCN(c3nc4c(c(=O)[nH]3)CCCN4C)CC2)CC1
# min-compare on efflux ratio between P and Q Use the label to indicate which entry you chose.
P

---

system: COLO 320DM; test: Antiproliferative activity against human COLO320DM cells assessed as inhibition of cell growth measured after 4 days by CellTiter-Glo assay; assay type: functional; settings: 96 h
readout-label: GI50 (nM)

# annotated cases, reported GI50 shown
Write down the reported GI50 of C[C@@H]1CN(c2cc(F)c3c(c2)N(C)C(=O)C32CCN(c3nc4c(c(=O)[nH]3)CCCN4C)CC2)C[C@H](C)N1 , test system: COLO 320DM.
850

Quick one: COCCOc1cc(F)c2c(c1)N(C)C(=O)C21CCN(c2nc3c(c(=O)[nH]2)CCCN3C)CC1
50

Quick one: CN1CCCc2c1nc(N1CCC3(CC1)C(=O)N(C)c1cc(OCC(=O)O)cc(F)c13)[nH]c2=O
300

Quick one: CN1CCCc2c1nc(N1CCC3(CC1)C(=O)N(C)c1cc(F)cc(F)c13)[nH]c2=O
220

Quick one: Cc1cccc2c(=O)[nH]c(N3CCC4(CC3)CN(CCO)c3cc(F)cc(F)c34)nc12
720

[A] CN1CCCc2c1nc(N1CCC3(CC1)C(=O)N(C)c1cc(OCCO)cc(F)c13)[nH]c2=O
[B] CN1CCCc2c1nc(N1CCC3(CC1)C(=O)N(C)c1cc(N4CCCCC4)cc(F)c13)[nH]c2=O
[C] CN1CCCc2c1nc(N1CCC3(CC1)C(=O)N(C)c1cc(N4CCNCC4)cc(F)c13)[nH]c2=O
Order the records by GI50, with each subsequent value no larger than the one before. Order the labels as requested and give them as your answer.
C, B, A

[P] COc1cc(F)c2c(c1)N(C)C(=O)C21CCN(c2nc3c(c(=O)[nH]2)CCCN3C)CC1
[Q] CN1CCCc2c1nc(N1CCC3(CC1)C(=O)N(CC(=O)O)c1cc(F)cc(F)c13)[nH]c2=O
# min-compare on GI50 between P and Q Use the label to indicate which entry you chose.
P
